target: full-length recombinant mouse PAD4 (mouse) (UniProt Q9Z183); test: ELISA, mouse PAD4 on plate, antibody 0.0039063 ug/mL
Sequence (Q9Z183 whole entry): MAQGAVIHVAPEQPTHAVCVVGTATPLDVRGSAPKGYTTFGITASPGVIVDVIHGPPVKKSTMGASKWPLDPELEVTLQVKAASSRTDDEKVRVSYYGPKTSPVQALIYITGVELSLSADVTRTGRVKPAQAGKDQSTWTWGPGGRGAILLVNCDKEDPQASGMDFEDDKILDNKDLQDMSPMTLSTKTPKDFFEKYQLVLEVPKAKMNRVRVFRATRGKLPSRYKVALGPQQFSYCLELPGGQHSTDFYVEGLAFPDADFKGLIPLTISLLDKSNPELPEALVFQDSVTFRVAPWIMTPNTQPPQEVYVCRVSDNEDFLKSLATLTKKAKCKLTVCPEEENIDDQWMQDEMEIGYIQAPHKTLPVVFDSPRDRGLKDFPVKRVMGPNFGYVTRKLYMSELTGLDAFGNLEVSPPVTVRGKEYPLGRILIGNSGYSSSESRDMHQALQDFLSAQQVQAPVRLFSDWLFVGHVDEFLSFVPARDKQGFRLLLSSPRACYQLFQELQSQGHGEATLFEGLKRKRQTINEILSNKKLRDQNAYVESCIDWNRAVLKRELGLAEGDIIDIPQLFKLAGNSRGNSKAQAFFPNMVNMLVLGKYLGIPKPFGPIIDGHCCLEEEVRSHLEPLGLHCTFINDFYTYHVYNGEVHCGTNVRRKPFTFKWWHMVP
measure: absorbance 490 nm/630 nm (OD)
# unit: OD | format: bare number

The binder listed as G6 (antibody, IgG1, V domains shown) VH: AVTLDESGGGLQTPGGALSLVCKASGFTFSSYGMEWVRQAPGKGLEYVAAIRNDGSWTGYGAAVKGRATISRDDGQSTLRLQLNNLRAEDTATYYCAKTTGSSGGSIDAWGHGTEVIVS VL: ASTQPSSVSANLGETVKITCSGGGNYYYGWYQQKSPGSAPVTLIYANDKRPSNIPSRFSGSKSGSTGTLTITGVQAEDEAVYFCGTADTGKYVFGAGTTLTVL has a reported absorbance 490 nm/630 nm of 0.55

The binder listed as H7 (antibody, IgG1, V domains shown) VH: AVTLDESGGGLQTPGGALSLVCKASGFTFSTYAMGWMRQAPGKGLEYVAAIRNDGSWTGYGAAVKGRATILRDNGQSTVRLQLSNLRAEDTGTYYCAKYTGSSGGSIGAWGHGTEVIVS VL: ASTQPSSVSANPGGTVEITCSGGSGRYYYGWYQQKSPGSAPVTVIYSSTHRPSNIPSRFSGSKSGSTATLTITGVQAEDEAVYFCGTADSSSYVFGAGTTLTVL has a reported absorbance 490 nm/630 nm of 1.41

The binder listed as G9 (antibody, IgG1, V domains shown) VH: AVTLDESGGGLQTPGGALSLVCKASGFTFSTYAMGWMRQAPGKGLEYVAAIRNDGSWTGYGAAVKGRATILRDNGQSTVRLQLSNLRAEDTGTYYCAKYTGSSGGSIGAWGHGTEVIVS VL: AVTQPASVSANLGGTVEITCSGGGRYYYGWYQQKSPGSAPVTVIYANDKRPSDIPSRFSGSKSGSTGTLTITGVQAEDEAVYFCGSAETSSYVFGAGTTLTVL has a reported absorbance 490 nm/630 nm of 1.39
